# protocol-summary: Example 5: lomefloxacin plasma concentrations
# condition-description: human, plasma, plasma concentration, Hour 19, mean, mean, p.m. dosing; 19 hours following last active dose
Counter-ions that a name gives are not always drawn.
attribute-measured: concentration at 19 h (ng/mL)
Enter your answer as a number in ng/mL; do not include the unit.

What the record says about CCn1cc(C(=O)O)c(=O)c2cc(F)c(N3CCNC(C)C3)c(F)c21 (racemic) [lomefloxacin HCl] : concentration at 19 h is 600

----------
# protocol-summary: Example 5: lomefloxacin plasma concentrations
# condition-description: human, plasma, Tmax, mean, p.m. dosing
Counter-ions that a name gives are not always drawn.
attribute-measured: Tmax

CCn1cc(C(=O)O)c(=O)c2cc(F)c(N3CCNC(C)C3)c(F)c21 (racemic) [lomefloxacin HCl] yielded Tmax of 2.9 h

----------
# protocol-summary: Tissue or fluid to plasma ratios and blister fluid distribution after oral administration
# Assay type: in vivo, human
# condition-description: Bronchial mucosa, oral; read-out: Mean Tissue or Fluid to Plasma Ratio
Where a name gives a salt, the structure may show the parent alone.
attribute-measured: Kp

The reported Kp of the molecule CCn1cc(C(=O)O)c(=O)c2cc(F)c(N3CCNC(C)C3)c(F)c21 (racemic) [lomefloxacin HCl] was 2.1

----------
# protocol-summary: Example 5: lomefloxacin plasma concentrations
# condition-description: human, plasma, plasma concentration, Hour 16, mean, mean, p.m. dosing; 16 hours following last active dose
Counter-ions that a name gives are not always drawn.
attribute-measured: concentration at 16 h (µg/mL)
API: value field is a number in µg/mL; no unit string.

Item: CCn1cc(C(=O)O)c(=O)c2cc(F)c(N3CCNC(C)C3)c(F)c21 (racemic) [lomefloxacin HCl] | concentration at 16 h: 0.8

----------
# protocol-summary: Example 5: lomefloxacin plasma concentrations
# condition-description: human, plasma, plasma concentration, Hour 14, mean, mean, a.m. dosing; immediately prior to last active dose
Structures can show the parent of a compound that is named as a salt.
attribute-measured: concentration at 14 h (ng/mL)
API: value field is a number in ng/mL; no unit string.

Entry under test: CCn1cc(C(=O)O)c(=O)c2cc(F)c(N3CCNC(C)C3)c(F)c21 (racemic) [lomefloxacin HCl] . Its concentration at 14 h was 300

----------
# protocol-summary: Example 5: lomefloxacin plasma concentrations
# condition-description: human, plasma, Tmax, mean, a.m. dosing; sample hour scale
Counter-ions that a name gives are not always drawn.
attribute-measured: Tmax (h)
Number in h, nothing else.

Please fill in: Tmax reported for CCn1cc(C(=O)O)c(=O)c2cc(F)c(N3CCNC(C)C3)c(F)c21 (racemic) [lomefloxacin HCl] = 14.9

----------
# protocol-summary: Tissue or fluid to plasma ratios and blister fluid distribution after oral administration
# Type: in vivo, human
# condition-description: Prostatic tissue, oral; read-out: Mean Tissue or Fluid to Plasma Ratio
Structures can show the parent of a compound that is named as a salt.
attribute-measured: Kp
Format: numeric value only, no unit, no commentary.

Just so you know, measured Kp for CCn1cc(C(=O)O)c(=O)c2cc(F)c(N3CCNC(C)C3)c(F)c21 (racemic) [lomefloxacin HCl] came out at 2

----------
# protocol-summary: Tissue or fluid to plasma ratios and blister fluid distribution after oral administration
# Format: in vivo, human
# condition-description: Bronchial secretions, oral; read-out: Mean Tissue or Fluid to Plasma Ratio
Where a name gives a salt, the structure may show the parent alone.
attribute-measured: Kp
Just the number, please, no unit after it.

For this molecule ( CCn1cc(C(=O)O)c(=O)c2cc(F)c(N3CCNC(C)C3)c(F)c21 (racemic) [lomefloxacin HCl] ), measured Kp is 0.6
